Assay: chemical genetic growth profiling, strain panel (AID 1159580);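 further: tested at 20 µM; growth read once vehicle control cultures reached saturation at 30 °C; 1 = growth at the plate median or of vehicle wells; lower values mean less growth of the strain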
Details: S. cerevisiae deletion strains, growth OD, locus YLL026W, hits give low values
In all, about 5,500 compounds went through this assay and about 2,000 (36%) were called active. Roughly 18% stayed inconclusive and do not appear here. This is one part of the list.
observation-type: normalized growth
Output: the number by itself.

Measured normalized growth, Nc1ccc(S(=O)(=O)NC(=O)c2ccccc2)cc1 : 1

Recorded normalized growth (compound O=C(O)c1ccccc1 ): 0.982

Per the record, O=P1(NCCCl)OCCCN1CCCl (stereo unspecified) has normalized growth of 1

// NC1=NCCN1CC(=O)O : normalized growth value = 1.01

Notebook: NC(=O)c1cccnc1 , normalized growth read as 0.951

What the record says about CC(=O)O[C@H]1CCC2(C)C3=C(CCC2C1(C)C)[C@@]1(C)CC[C@@H](C(C)CCC=C(C)C)[C@]1(C)CC3 (stereo partly specified) : normalized growth is 1.02

Measured normalized growth of CC(C)NCC(O)COc1ccc(COCCOC(C)C)cc1 (stereo unspecified) : 0.998

Lab note: measured normalized growth of CC12CCC(=O)C=C1CCC1C2[C@@H](O)CC2(C)C1CC[C@]2(O)C(=O)COP(=O)(O)O (stereo partly specified) was 1

Quick note, normalized growth for CC(=O)O[C@H]1CC[C@@]2(C)C(=CC(=O)C3C4CCC(C(C)CCCC(C)C)[C@@]4(C)CCC32)C1 (stereo partly specified) landed at 1

Please fill in: normalized growth reported for CCCN(CCC)S(=O)(=O)c1ccc(C(=O)O)cc1 = 0.984

// sample CC(C)CCCC(C)[C@H]1CCC2C3C(=O)C=C4C[C@@H](O)CC[C@]4(C)C3CC[C@@]21C (stereo partly specified) , its normalized growth was 1.01
